Data provenance: patent US7183260B2

TESTED_ON: CPP32 (Homo sapiens)
TEST_NAME: Dissociation constant Ki and irreversible rate constant k3 for irreversible inhibitors (CPP32)
Assay type: biochemical
Listed next: entries and their corresponding Ki.
The response must be a number in nM with no trailing unit.

{"MOLECULE": "C[C@H](NC(=O)C(=O)NC12CC3CC(CC(C3)C1)C2)C(=O)N[C@@H](CC(=O)O)C(=O)COP(=O)(c1ccccc1)c1ccccc1 [Example 53]", "Ki / nM": 134}

Let's switch to this molecule now.
State the recorded Ki for this entry: C[C@H](NC(=O)C(=O)NC12CC3CC(CC(C3)C1)C2)C(=O)N[C@@H](CC(=O)O)C(=O)COC(=O)c1c(Cl)cccc1Cl [Example 54]
409

----------
TESTED_ON: CPP32 (Homo sapiens)
Sequence (P42574 29-175 limits assumed): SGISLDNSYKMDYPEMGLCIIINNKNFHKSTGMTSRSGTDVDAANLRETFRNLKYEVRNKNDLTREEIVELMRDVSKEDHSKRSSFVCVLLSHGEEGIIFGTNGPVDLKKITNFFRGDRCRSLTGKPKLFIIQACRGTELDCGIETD
Sequence (P42574 176-277 limits assumed): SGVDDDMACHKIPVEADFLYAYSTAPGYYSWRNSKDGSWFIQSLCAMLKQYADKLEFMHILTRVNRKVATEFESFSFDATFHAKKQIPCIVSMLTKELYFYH
TEST_NAME: Dissociation constant Ki and irreversible rate constant k3 for irreversible inhibitors (CPP32)
Type: biochemical
CONDITIONS_USED: continuous assay 60 min, reaction initiated by adding enzyme to substrate-inhibitor mixture
Each entry below carries its reported pKi.
Scale: pKi equals -log10([C]), with [C] in mol/L.

Example results:
{"COMPOUND": "CC(C)[C@H](NC(=O)C(=O)Nc1cccc2ccccc12)C(=O)NC(CC(=O)O)C(=O)CF (mixture of isomers) [Example 3]", "OBSERVED": 7.49}
{"COMPOUND": "CC(C)[C@H](NC(=O)C(=O)Nc1ccccc1F)C(=O)N[C@@H](CC(=O)O)C(=O)COc1c(F)c(F)cc(F)c1F [Example 90]", "OBSERVED": 5.64}

Query pKi on CPP32 (Homo sapiens) for C[C@H](NC(=O)C(=O)NC1CCCCC1)C(=O)N[C@@H](CC(=O)O)C(=O)COC(=O)c1c(Cl)cccc1Cl [Example 55]
7.89

CC(C)[C@H](NC(=O)C(=O)Nc1cccc2ccccc12)C(=O)N[C@@H](CC(=O)O)C(=O)COc1ccc(O)cc1 [Example 15] ?
7.38

----------
Known pKi of a selection of molecules
TESTED_ON: mICE (Mus musculus, UniProt P29452)
Sequence (P29452 123-296 limits assumed): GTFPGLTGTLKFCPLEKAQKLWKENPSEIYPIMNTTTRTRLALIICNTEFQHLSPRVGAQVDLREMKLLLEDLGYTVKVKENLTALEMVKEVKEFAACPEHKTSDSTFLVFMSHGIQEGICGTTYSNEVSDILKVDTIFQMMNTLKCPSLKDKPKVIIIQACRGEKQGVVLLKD
Sequence (P29452 315-402 limits assumed): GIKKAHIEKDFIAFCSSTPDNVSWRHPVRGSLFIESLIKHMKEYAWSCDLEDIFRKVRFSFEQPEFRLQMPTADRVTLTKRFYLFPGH
TEST_NAME: Dissociation constant Ki and irreversible rate constant k3 for irreversible inhibitors (ICE)
Format: biochemical
CONDITIONS_USED: continuous assay 60 min, reaction initiated by adding enzyme to substrate-inhibitor mixture
# pKi = -log10(concentration in molar units)

For orientation, consider the following solved cases.
{"MOLECULE": "CC(C)[C@H](NC(=O)C(=O)Nc1ccccc1I)C(=O)N[C@@H](CC(=O)O)C(=O)COc1c(F)c(F)cc(F)c1F", "MEASURED_METRIC": "pKi", "OBSERVED": 8.15}
{"MOLECULE": "C[C@H](NC(=O)C(=O)Nc1cccc2c1CCCC2)C(=O)N[C@@H](CC(=O)O)C(=O)COP(=O)(c1ccccc1)c1ccccc1 [Example 61]", "MEASURED_METRIC": "pKi", "OBSERVED": 7.64}

Need pKi of C[C@H](NC(=O)C(=O)Nc1cccc2c1CCCC2)C(=O)N[C@@H](CC(=O)O)C(=O)COP(=O)(c1ccccc1)c1ccccc1 [Example 48] , thanks.
7.96

----------
We begin with a simple list: items and their reported mICE k3/Ki.
TESTED_ON: mICE (Mus musculus, UniProt P29452)
TEST_NAME: Dissociation constant Ki and irreversible rate constant k3 for irreversible inhibitors (ICE)
Type: biochemical
CONDITIONS_USED: continuous assay 60 min, reaction initiated by adding enzyme to substrate-inhibitor mixture

{"MOLECULE": "CC(C)[C@H](NC(=O)C(=O)Nc1ccccc1Cl)C(=O)N[C@@H](CC(=O)O)C(=O)COc1c(F)c(F)cc(F)c1F", "TESTED_ON": "mICE (Mus musculus, UniProt P29452)", "mICE k3/Ki": "1,540,000 moles^−1 seconds^−1"}
{"MOLECULE": "C[C@H](NC(=O)C(=O)Nc1ccccc1Cl)C(=O)N[C@@H](CC(=O)O)C(=O)COP(=O)(c1ccccc1)c1ccccc1 [Example 41]", "TESTED_ON": "mICE (Mus musculus, UniProt P29452)", "mICE k3/Ki": "103,000 moles^−1 seconds^−1"}
{"MOLECULE": "C[C@H](NC(=O)C(=O)NCc1ccccc1)C(=O)N[C@@H](CC(=O)O)C(=O)COC(=O)c1c(Cl)cccc1Cl", "TESTED_ON": "mICE (Mus musculus, UniProt P29452)", "mICE k3/Ki": "59,100 moles^−1 seconds^−1"}
{"MOLECULE": "CC(C)[C@H](NC(=O)C(=O)Nc1ccc(F)cc1)C(=O)N[C@@H](CC(=O)O)C(=O)COc1c(F)c(F)cc(F)c1F", "TESTED_ON": "mICE (Mus musculus, UniProt P29452)", "mICE k3/Ki": "906,000 moles^−1 seconds^−1"}
{"MOLECULE": "CC(C)[C@H](NC(=O)C(=O)Nc1ccccc1)C(=O)N[C@@H](CC(=O)O)C(=O)COc1c(F)c(F)cc(F)c1F", "TESTED_ON": "mICE (Mus musculus, UniProt P29452)", "mICE k3/Ki": "1,490,000 moles^−1 seconds^−1"}

From here, focus on the item given below.
Would you mind telling me what mICE k3/Ki value was observed for `CCCCCCCc1ccc(NC(=O)C(=O)N[C@H](C(=O)N[C@@H](CC(=O)O)C(=O)COc2c(F)c(F)cc(F)c2F)C(C)C)cc1` ?
657,000 moles^−1 seconds^−1

----------
TESTED_ON: mICE (Mus musculus, UniProt P29452)
TEST_NAME: Dissociation constant Ki and irreversible rate constant k3 for irreversible inhibitors (ICE)
Type: biochemical
CONDITIONS_USED: continuous assay 60 min, reaction initiated by adding enzyme to substrate-inhibitor mixture
In this section we review reported mICE k3/Ki values for a set of compounds.

Some compounds with known mICE k3/Ki results, for comparison:
{"COMPOUND": "CC(C)[C@H](NC(=O)C(=O)Nc1c(F)cccc1F)C(=O)N[C@@H](CC(=O)O)C(=O)COc1c(F)c(F)cc(F)c1F [Example 108]", "mICE k3/Ki": "2,680,000 moles^−1 seconds^−1"}
{"COMPOUND": "C[C@H](NC(=O)C(=O)Nc1cc(C(F)(F)F)ccc1N1CCCC1)C(=O)N[C@@H](CC(=O)O)C(=O)COP(=O)(c1ccccc1)c1ccccc1 [Example 46]", "mICE k3/Ki": "1,503,000 moles^−1 seconds^−1"}
{"COMPOUND": "CC(C)[C@H](NC(=O)C(=O)Nc1ccncc1)C(=O)N[C@@H](CC(=O)O)C(=O)COc1c(F)c(F)cc(F)c1F [Example 101]", "mICE k3/Ki": "912 mol⁻¹ s⁻¹"}
{"COMPOUND": "C[C@H](NC(=O)C(=O)Nc1ccccc1C(C)(C)C)C(=O)N[C@@H](CC(=O)O)C(=O)COc1ccccc1F [Example 31]", "mICE k3/Ki": "442,000 moles^−1 seconds^−1"}
{"COMPOUND": "CC(C)[C@H](NC(=O)C(=O)Nc1cccc2ccccc12)C(=O)NC(CC(=O)O)C(=O)CF (mixture of isomers) [Example 3]", "mICE k3/Ki": "2,170,000 moles^−1 seconds^−1"}

Please find the next compound below.
So what mICE k3/Ki did CC(C)[C@H](NC(=O)C(=O)Nc1ccccc1I)C(=O)N[C@@H](CC(=O)O)C(=O)COc1c(F)c(F)cc(F)c1F [Example 107] get with mICE (Mus musculus, UniProt P29452)?
1,260,000 moles^−1 seconds^−1

----------
TESTED_ON: mICE (Mus musculus)
TEST_NAME: Dissociation constant Ki and irreversible rate constant k3 for irreversible inhibitors (ICE)
Type: biochemical
CONDITIONS_USED: continuous assay 60 min, reaction initiated by adding enzyme to substrate-inhibitor mixture
// boundary case: Ki equal to 10 nM maps to False; strictly smaller maps to True

Previously resolved entries follow.
{"COMPOUND": "C[C@H](NC(=O)C(=O)Nc1cc(C(C)(C)C)ccc1C(C)(C)C)C(=O)N[C@@H](CC(=O)O)C(=O)COc1c(F)c(F)cc(F)c1F", "TESTED_ON": "mICE (Mus musculus)", "CLASS": "False"}
{"COMPOUND": "CC(C)[C@H](NC(=O)C(=O)Nc1ccccc1C(F)(F)F)C(=O)N[C@@H](CC(=O)O)C(=O)COc1c(F)c(F)cc(F)c1F", "TESTED_ON": "mICE (Mus musculus)", "CLASS": "False"}
{"COMPOUND": "C[C@H](NC(=O)C(=O)Nc1ccc(F)cc1)C(=O)N[C@@H](CC(=O)O)C(=O)COP(=O)(c1ccccc1)c1ccccc1", "TESTED_ON": "mICE (Mus musculus)", "CLASS": "False"}

Dear colleague, could you confirm whether Ki of `C[C@H](NC(=O)C(=O)NC1CCCCC1)C(=O)N[C@@H](CC(=O)O)C(=O)COP(=O)(c1ccccc1)c1ccccc1` falls below 10 nM? Thanks.
True

Subsequent entry: `C[C@H](NC(=O)C(=O)Nc1cc(C(C)(C)C)ccc1C(C)(C)C)C(=O)N[C@@H](CC(=O)O)C(=O)COC(=O)c1c(Cl)cccc1Cl`
False

// next record C[C@H](NC(=O)C(=O)Nc1ccccc1I)C(=O)N[C@@H](CC(=O)O)C(=O)COC(=O)c1c(Cl)cccc1Cl [Example 38]
False
